Measurement notes: chemical genetic growth profiling, strain panel (AID 1159580);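 also: tested at 20 µM; growth read once vehicle control cultures reached saturation at 30 °C; lower values mean less growth of the strain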
Study conditions: S. cerevisiae deletion strains, growth OD, locus YGL240W, strain doc1
About 2,000 (36%) of roughly 5,500 compounds were called active. Roughly 18% stayed inconclusive and do not appear here. Rule as the data show it: active = normalized growth mostly below about 0.91 (no sharp cut-off); inconclusive = no clear call, values can overlap the other calls; inactive = mostly above about 0.92. Some of the results follow.
Write down one outcome, taken from active, inactive

compound=COc1cc(C)c2c(=O)cc(-c3ccccc3)oc2c1 label_class=active
compound="COc1ccc(CCC(=O)c2c(O)cc(O[C@@H]3O[C@H](CO)C(O)[C@H](O)C3O[C@@H]3O[C@@H](C)[C@H](O)[C@@H](O)[C@H]3O)cc2O)cc1O (some centres undefined)" label_class=inactive
compound=CC(=O)O[C@]1(C)CC[C@@]23CC1C(C)(C)[C@@H]2CC[C@H]3C label_class=inactive
compound="NCC[C@@H](O)C(=O)N[C@@H]1C[C@H](N)[C@@H](O[C@H]2O[C@H](CN)[C@@H](O)[C@H](O)[C@H]2O)[C@H](O)[C@H]1O[C@H]1O[C@H](CO)[C@@H](O)[C@H](N)C1O (some centres undefined)" label_class=inactive

Asked: Returns: the outcome recorded for CCN1C[C@@]2(COC)C3[C@@H](OC)[C@H]4[C@@H]1[C@]3(C(OC)C[C@H]2O)C1C[C@@]2(O)[C@H](OC(=O)c3ccccc3)C1[C@]4(OC(C)=O)[C@@H](O)[C@@H]2OC (some centres undefined) in this assay.
Given back: inactive

Asked: Returns: the outcome recorded for CC(=O)OC/C=C(\C)CC/C=C(\C)CC/C=C(\C)CC/C=C(\C)CC/C=C(\C)CC/C=C(\C)CC/C=C(\C)CC/C=C(\C)CCC=C(C)C in this assay.
Given back: inactive

Asked: Returns: the outcome recorded for O=c1oc2ccccc2cc1O in this assay.
Given back: inactive
